These data points were gathered from patent US12509460B2.

Tested on: MDR1 (P-gp)
measurementNotes: in vitro
assayContext: dog, MDCK-MDR1, pH 7.4
Please use Satisfied for Papp B→A at 120 min, 5 μM under 50 ×10⁻⁶ cm/s and Not satisfied for everything else, ties included.

molecule | discreteLabel
CN(c1ccc(-c2cc3cccnc3cc2O)nn1)[C@H]1C[C@@H]2CC(F)(F)[C@H](C1)N2 [Compound 45B] | Satisfied

Ask: I'd appreciate it if you could check whether Cc1nc2cc(-c3ccc(N(C)[C@H]4C[C@@H]5CC[C@H]([C@H]4F)N5C)nn3)c(O)cc2c(=O)n1CC(F)(F)F (single isomer, unassigned) [Compound 130B] has Papp B→A at 120 min, 5 μM smaller than 50 ×10⁻⁶ cm/s.
Reply: Not satisfied

Ask: // repeat for CN(c1ccc(-c2cc3cnccc3cc2O)nn1)[C@@H]1C[C@H]2CC[C@@H]([C@@H]1F)N2C [Compound 93A] and report
Reply: Satisfied

Ask: Moving on to CC(=O)Nc1ccc(-c2ccc(N(C)[C@H]3C[C@@H]4CC[C@@H](N4)[C@H]3F)nn2)c(O)c1 (single isomer, unassigned) [Compound 32B]
Reply: Satisfied

Ask: Quick one: CN(c1ccc(-c2ccc(C3CC3)cc2O)nn1)[C@@H]1C[C@H]2CC[C@H](N2)[C@@H]1F (single isomer, unassigned) [Compound 31A]
Reply: Satisfied

Ask: Another molecule to check: CN(c1ccc(-c2cc3ncn(CC(F)(F)F)c(=O)c3cc2O)nn1)[C@H]1C[C@@H]2CC(F)(F)[C@H](C1)N2 [Compound 59B]
Reply: Not satisfied

Ask: Similarly, CN(c1ccc(-c2cc3ncn(CC(F)(F)F)c(=O)c3cc2O)nn1)[C@@H]1C[C@H]2CC(F)(F)[C@@H](C1)N2C (single isomer, unassigned) [Compound 110A] ?
Reply: Satisfied
